interaction score values, listed per item
- TESTED TARGET: T1, 4H48-AA
- T1 chain: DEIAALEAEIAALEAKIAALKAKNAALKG
- PROCEDURE SUMMARY: two-hybrid library CCmax;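 also: natural log of median RNA to DNA barcode read ratio; higher means stronger binding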
- CONDITION NOTES: mean of both orientations
Give a plain numeric answer without units written out.

[
  {
    "BINDER": "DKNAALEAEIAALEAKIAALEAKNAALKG [4H3112-AA]",
    "interaction score": 0.163
  }
]

INPUT: Form field: reported interaction score of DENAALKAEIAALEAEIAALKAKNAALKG [4H1552-AA]
OUTPUT: 0.191

INPUT: Endpoint output: interaction score of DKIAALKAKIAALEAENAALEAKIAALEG [4H2837-AA] . Value?
OUTPUT: 0.24

INPUT: Find the recorded interaction score belonging to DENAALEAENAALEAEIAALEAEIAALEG [4H1153-AA] and report it.
OUTPUT: -1.38
